All figures here come from ChEMBL document CHEMBL4715872.

- measurementDescription: Inhibition of rat small intestine GST using CDNB as substrate by spectrophotometric method
- Assay type: tissue-based
observationType: Ki (nM)
Return type: number; implicit unit nM.

Asked: Give the reported Ki for this compound. Cc1cc(O)c2c(=O)c3c(O)cc(O)c4c5c(O)cc(O)c6c(=O)c7c(O)cc(C)c8c1c2c(c34)c(c78)c65
Given back: 200

---

- measurementDescription: Inhibition of human sGC expressed in HUVEC cells assessed as reduction in GMP level incubated for 48 hrs in presence of NPS by ELISA
- Format: cell-based
observationType: IC50 (µM)
// note: answer is a bare numeric in µM

• O=C1C(O)=C(O)C(=O)c2c(O)ccc(O)c21 = 10

Kindly review the next compound as well.
Asked: Provide only the value of recorded IC50 for O=C1C(O)=C(O)C(=O)c2c(O)c(Cl)cc(O)c21
Given back: 13
